tested on: MS2 coat protein; test: apparent KD of MS2 coat protein; designed switch direction (-1 OFF switch, 1 ON switch): -1; higher = weaker reporter binding; settings: input ligand: microRNA oligo, concentration not stated
Would you please tag the item True when its apparent KD of MS2 coat protein is 80 nM or above, and False when it is below?

1. UAGCAUUGCCAAAGGUAGUGCAAAACAUGAGGAUCACCCAUGUAGGAUAUGGUAGGCAAAGCUUACCAGAAGGACAUGAUAAAU [Mat - Exclusion NG 3 - Mod of JL - D18] (Eterna round: R96, puzzle: Exclusion NG 3): False
2. UCAUACGGUGAGGAUAUCUCCACUAAAGUGUGUAGAGAAGGCGCUACAUGAGGAUCACCCAUGUUUAUGGGCAG [Ex-6 Malc#13] (Eterna round: R96, puzzle: Exclusion 6): True
3. CUUGUUUAUGUAGGAUAUGCCUGGCGUGCCUUUGCAGAAGGACAUGAGGAUCACCCAUGUAUUGCGGUCUGCGUUCAGAUCGCG [salish99_ExNG1_r4_043] (Eterna round: R96, puzzle: Exclusion NG 1): False
4. GCAGCAUAGUCGGAAACGACAGAACAUGAGGAUCACCCAUGUUAGGAUAUGGUCUGGAUUACAGGCCAGAAGGGACAAAGCUGC [Eli exng3 - 009] (Eterna round: R96, puzzle: Exclusion NG 3): False
5. UCUGUUAUGCGAGGAUAUCGACCAUUCCUCUUAACAUGAGGAUCACCCAUGUGCUAAUCCUUCAACGAGAAGGCGCUCUUACUC [JR_ExcNG2_Sub069] (Eterna round: R96, puzzle: Exclusion NG 2): True

## Input Textbook exercise: given the entry AAGAAGAGGUGAGGAUAUCGAAGUACAGGCUGGGACUCGGACUACAUGAGGAUCACCCAUGUAUACGAGAAGGCACUUCGAUAA [Quusatrare] (Eterna round: R96, puzzle: Exclusion NG 2) , state whether its apparent KD of MS2 coat protein is greater than or equal to 80 nM.
## Output False

## Input Textbook exercise: given the entry AAGUAUAGAGGAUAUAGUAGGUACAACAUGAGGAUCACCCAUGUUCUUCAUAACGUAUUUCUAGAAGGCUGAUAAA [EX-5 Malc#27] (Eterna round: R96, puzzle: Exclusion 5) , state whether its apparent KD of MS2 coat protein is greater than or equal to 80 nM.
## Output True

## Input Textbook exercise: given the entry AGAGAAUAGACAGGAUAUGAGAAUAGAUAGAGCUCAGAAGGGUCACAUGAGGAUCACCCAUGUGAAGUCUUGAGGCUGCGUGGA [Prohibition 19 - Jieux - Exclusion NG 1] (Eterna round: R96, puzzle: Exclusion NG 1) , state whether its apparent KD of MS2 coat protein is greater than or equal to 80 nM.
## Output False

====

test system: MS2 coat protein; assay: apparent KD of MS2 coat protein; designed switch direction (-1 OFF switch, 1 ON switch): -1; higher = weaker reporter binding; settings: input ligand: FMN 200 uM
Examples of sequences with documented apparent KD of MS2 coat protein follow.
Provide the reading as a plain figure in nM.

Documented apparent KD of MS2 coat protein of UUAUUGUGUGUAGGAUAUGCGUGUUAUUAUUAUGCAGAAGGACAUGAGGAUCACCCAUGUGUAUUGUUAUUAUAUAUUAUAUAU [Title] (Eterna round: R96, puzzle: Exclusion NG 1) : 48.2

Documented apparent KD of MS2 coat protein of CCGCUGCAAGGAUAUACUUGCGGUGAUGUUCGAGUUCUUCUACUUGAGGAUCACCCAAGUAGAAGGUGCAAAAC [jl-ex2.4.58 ViennaUCT mod] (Eterna round: R97, puzzle: Exclusion 2) : 19.2

Documented apparent KD of MS2 coat protein of UAUUACCCAAGCAGGUCCCACAUGAGGAUCACCCAUGUGCUCGUCUUAUAACGAUCUGUGGGAAAACCUACGGAUCG [Elimod 20 - Jieux - Sensor, turn-off variant 1] (Eterna round: R97, puzzle: Sensor, turn-off variant 1) : 27.7

Documented apparent KD of MS2 coat protein of GUGUUUCGUGUAGGAUAUGUUUGUGGGUCGCGGGCAGAAGGACAUGAGGAUCACCCAUGUUGCGGGUUCGGUUUGUGCGGGCGC [-22, -20 kcal and 14% A] (Eterna round: R96, puzzle: Exclusion NG 1) : 23.6

====

system: MS2 coat protein; test: apparent KD of MS2 coat protein; designed switch direction (-1 OFF switch, 1 ON switch): -1; higher = weaker reporter binding; details: Eterna round: R95; input ligand: none
endpoint: apparent KD of MS2 coat protein
Note: a bare number is incomplete; add the unit.

1. AAGAGGUCAGGAUAUACGGGAAGAGGGAGAAGUAGAGGGUAACAUGAGGAUCACCCAUGUAGAAGGGACUAAGA [JR_Exclu2_Sub073] (puzzle: Exclusion 2): 0.0281 µM
2. CCGUUAUGAGGAUAUCGCUUGAAAGACAUGAGGAUCACCCAUGUGGGCGCGUCCUCAUGGCGAGAAGGCAUUACGA [Enmaatama] (puzzle: Exclusion 5): 0.0126 µM

Please examine the following record next.
Documented apparent KD of MS2 coat protein of GGUUGGCGAGGAUAUACAUGAGGAUCACCCAUGUGAGAGAAAAAAGUGCGGAAGAAAAGUAGAAGGCGCUGACG [salish99_ex3_r3_029] (puzzle: Exclusion 3) : 0.0257 µM

====

tested on: MS2 coat protein; test: apparent KD of MS2 coat protein; designed switch direction (-1 OFF switch, 1 ON switch): 1; higher = weaker reporter binding; conditions: Eterna round: R95; input ligand: microRNA oligo, concentration not stated
Examples of sequences with documented apparent KD of MS2 coat protein follow.
Provide the reading as a plain figure in nM.

Study these solved cases before continuing.
1. AGUCCAGCCUGAGCUGGACAAAAGCAUGUACAUGAGGAUCACCCAUGUCAUGUACAAGCUUUUUGCUCGUCUAAAUA [Mat - hsa-mir-208a - Mod of JL - D27] (puzzle: Sensor for hsa-mir-208a): 15.8
2. UUUCGGUGGCUGGAGGAUAUCCUGGUUGUUACAUGAGGAUCACCCAUGUGCCGCGCGGUGCGCUGGGAGAAGGCCGGCGGCCCUU (puzzle: Same State 2): 25.2
3. UUAAAACAUGAGGAUCACCCAUGUCAACAAAGUCGAGGAUAUGGGCAAAUAAAAUAAGAACCAGAAGGCGAAUAAU [salish99_SS1_r3_006] (puzzle: Same State 1): 434
4. GCAGAACAUGAGGAUCACCCAUGUCUCUAAUAUCGAGGAUAUGGGCACGGUAUAUCCGAACCAGAAGGCGAACUGC [SS1 Teenbexe 15] (puzzle: Same State 1): 244
5. CUCAAACAUGAGGAUCACCCAUGUGUUGUCGUGGGAGGAUAUCCCAGUUCGGUGGCGUCGGGAGAAGGCCUAUGUC [× ×•×ª×• ×ž×“×™× ×” × ×—×ª-16] (puzzle: Same State 1): 100

Documented apparent KD of MS2 coat protein of UGUCCAGCCUGAGCUGGACAAAAGCAUGUACAUGAGGAUCACCCAUGUUCAUGUACAAGCUUUUUGCUCGUCUUAUA [salish99_208a_r3_044] (puzzle: Sensor for hsa-mir-208a) : 13.8

Documented apparent KD of MS2 coat protein of GGAGCCUGCACUGAGGAUAUUCGUAGUGUAACAUGAGGAUCACCCAUGUGUCGCCGUAGCGACUGGGAGAAGGCAGUGCGGCUCG [JL-ss2-3.07 ViennaUCT mod] (puzzle: Same State 2) : 48.4

Documented apparent KD of MS2 coat protein of AGUCCAGCAAGAGCUGGACAAAAGCAUGUACAUGAGGAUCACCCAUGUUCAUGUACAAGCUUUUAGCUCGUCUUAAA [Mat - hsa-mir-208a - Mod of JL - 58] (puzzle: Sensor for hsa-mir-208a) : 14.2

Documented apparent KD of MS2 coat protein of UUGUUACAUGAGGAUCACCCAUGUUGUUGUAGAUAAGGAUAUAUAGGAACGAGAGAAAUAAUAGAAGGUAUUAGAC [JR_SS1_Sub059] (puzzle: Same State 1) : 28.6

Documented apparent KD of MS2 coat protein of AGUCCUGAAUAAAUUAAACAGAGACAUGUACAUGAGGAUCACCCAUGUCAUGUACAAGUUCUAUGCUCGUCAUAUAA [Sensorship 19 - Jieux - Sensor for hsa-mir-208a] (puzzle: Sensor for hsa-mir-208a) : 14.6

====

test system: MS2 coat protein; assay: apparent KD of MS2 coat protein; designed switch direction (-1 OFF switch, 1 ON switch): 1; higher = weaker reporter binding; settings: Eterna round: R95; input ligand: none
endpoint: apparent KD of MS2 coat protein (nM)
Provide the reading as a plain figure in nM.

Study these solved cases before continuing.
1) GUAGAUGUAGAGGAGGAUAUUCAAUAGAGAACAUGAGGAUCACCCAUGUAAGAGAGAGAUGAUGGGAAGAAGGCUUAGAGAGAUG [Altered State 2-1 - Jieux - Same State 2] (puzzle: Same State 2): 94.8
2) AGUCCAGCCUGAGCUGGACAAAAGCAUGUACAUGAGGAUCACCCAUGUUCAUGUACAAGCUUUUUGCUCGUCUUAGC [salish99_208a_r3_063] (puzzle: Sensor for hsa-mir-208a): 648
3) AUCAAUCUAUCUCAGGAUAUCAUGUCAAAGACAUGAGGAUCACCCAUGUACCAGGAAACUGGUUAUGAGAAGGGAGAUAGAUUGA [Mat - Same State 2 - Mod - D30] (puzzle: Same State 2): 53.2

Hey, MS2 coat protein data for AAUUAUUUACAUGAGGAUCACCCAUGUAUUAUUACAAGCUUUAUCCUCGUUUUAUUUAUUAUUAUUAUUAUUAUUAA [benbell_design1] (puzzle: Sensor for hsa-mir-208a version 2) : apparent KD of MS2 coat protein came out at 326

Hey, MS2 coat protein data for UUAAAACAUGAGGAUCACCCAUGUCAACAAAGUCGAGGAUAUGGGCAAAUAAAAUAAGAACCAGAAGGCGAAUAAU [salish99_SS1_r3_006] (puzzle: Same State 1) : apparent KD of MS2 coat protein came out at 409
